Where do these numbers come from? They come from patent US5981497A.

# test: Cytotoxicity on primocultures at 24 hours (neutral red), keratinocytes
# Format: cell-based
# measurement setup: 10^-5M, read-out: Cellular Viability Rate
readout: viability at 24 h, 10 µM (%)
Answer in %, number only, no unit symbol.

CC(CCCCCC/C=C\CCCCCCCC(=O)O)O[C@@H]1O[C@H](CO)[C@@H](O)[C@H](O)[C@H]1O[C@@H]1O[C@H](CO)[C@@H](O)[C@H](O)[C@H]1O (some centres unmarked) [Sophorolipid in Acid Form] : 99.9

Q. Report measured viability at 24 h, 10 µM; entry is CC1CCCCCC/C=C\CCCCCCCC(=O)O[C@H]2[C@H](O)[C@@H](O)[C@H](O[C@H]3[C@H](O1)O[C@H](CO)[C@@H](O)[C@@H]3O)O[C@@H]2CO (some centres unmarked) [Sophorolipid in Lactone Form]
A. 99.6

* * *

# test: Cytotoxicity on NCTC2544 at 24 hours (neutral red)
# Assay type: cell-based
# measurement setup: human, nctc2544 cells, 10^-5M, read-out: Cellular Viability Rate
readout: viability at 24 h, 10 µM (%)
Answer in %, number only, no unit symbol.

CC1CCCCCC/C=C\CCCCCCCC(=O)O[C@H]2[C@H](O)[C@@H](O)[C@H](O[C@H]3[C@H](O1)O[C@H](CO)[C@@H](O)[C@@H]3O)O[C@@H]2CO (some centres unmarked) [Sophorolipid in Lactone Form] : 95.5

Q. Report measured viability at 24 h, 10 µM; entry is CC(CCCCCC/C=C\CCCCCCCC(=O)O)O[C@@H]1O[C@H](CO)[C@@H](O)[C@H](O)[C@H]1O[C@@H]1O[C@H](CO)[C@@H](O)[C@H](O)[C@H]1O (some centres unmarked) [Sophorolipid in Acid Form]
A. 101

* * *

# test: Cytotoxicity on primocultures at 24 hours (neutral red), fibroblasts
# Type: cell-based
# measurement setup: fibroblasts; 24 hours; 10^-6M; read-out: Cellular Viability Rate
readout: viability at 24 h, 1 µM (%)
Answer in %, number only, no unit symbol.

CC1CCCCCC/C=C\CCCCCCCC(=O)O[C@H]2[C@H](O)[C@@H](O)[C@H](O[C@H]3[C@H](O1)O[C@H](CO)[C@@H](O)[C@@H]3O)O[C@@H]2CO (some centres unmarked) [Sophorolipid in Lactone Form] : 101

Note: attention shifts to another entry.
Q. Report measured viability at 24 h, 1 µM; entry is CC(CCCCCC/C=C\CCCCCCCC(=O)O)O[C@@H]1O[C@H](CO)[C@@H](O)[C@H](O)[C@H]1O[C@@H]1O[C@H](CO)[C@@H](O)[C@H](O)[C@H]1O (some centres unmarked) [Sophorolipid in Acid Form]
A. 99.7

* * *

# test: Cytotoxicity on L929 at 24 hours (neutral red)
# Type: cell-based
# measurement setup: mouse, l929 cells, 10^-5M, read-out: Cellular Viability Rate
readout: viability at 24 h, 10 µM (%)
Answer in %, number only, no unit symbol.

CC1CCCCCC/C=C\CCCCCCCC(=O)O[C@H]2[C@H](O)[C@@H](O)[C@H](O[C@H]3[C@H](O1)O[C@H](CO)[C@@H](O)[C@@H]3O)O[C@@H]2CO (some centres unmarked) [Sophorolipid in Lactone Form] : 96.5

Note: attention shifts to another entry.
Q. Report measured viability at 24 h, 10 µM; entry is CC(CCCCCC/C=C\CCCCCCCC(=O)O)O[C@@H]1O[C@H](CO)[C@@H](O)[C@H](O)[C@H]1O[C@@H]1O[C@H](CO)[C@@H](O)[C@H](O)[C@H]1O (some centres unmarked) [Sophorolipid in Acid Form]
A. 101
